ASSAY PROCEDURE: Dissociation constant, pKa of compound
Type: physicochemical
MEASURED QUANTITY: pKa

[[record]]
smiles = "Cc1c(Cl)cccc1NCc1cc(=O)n2nc(-c3ccccc3)nc2[nH]1"
measured_quantity = "pKa"
value_observed = 4.6


---

ASSAY PROCEDURE: Inhibition of Plasmodium falciparum DHODH expressed in Escherichia coli by DCIP staining-based spectrophotometric analysis
MEASURED QUANTITY: IC50 (nM)

[[record]]
smiles = "Cc1cc(Nc2cc(F)c(C(F)(F)F)c(F)c2)n2ncnc2n1"
value_observed = 190

[[record]]
smiles = "Cc1cc(Nc2ccc(S(F)(F)(F)(F)F)cc2)n2nc(C(C)(F)F)nc2n1"
value_observed = 33

[[record]]
smiles = "Cc1cc(Nc2ccc(C(F)(F)F)nc2)n2nc(C(C)(F)F)nc2n1"
value_observed = 14

